system: phenylquinone-induced writhing in mice; assay: Anti-nociceptive activity in phenylquinone-induced writhing test in mice; format: in vivo, mouse (male NMRI); settings: Mus musculus, iv, 10 min; i.v., phenylquinone i.p. 10 min after compound, writhing counted 5-20 min after phenylquinone; 10 animals per dose; 95% confidence range in parentheses
Counter-ions that a name gives are not always drawn.
ENDPOINT_NAME: ED50 (mg/kg)
Note: unit mg/kg is implicit; provide only the numeric part.

Here are 3 compounds together with their reported answers.
CN(C)CC1=C(c2cccc(O)c2)CC(c2ccc(O)cc2)CCC1.Cl (stereo not shown)	2.25
CN(C)CC1=C(c2cccc(O)c2)CC(c2ccc3cc(O)ccc3c2)CCC1 (stereo not shown) [Example 2h, hydrochloride]	6.22
CN(C)CC1=C(c2cccc(O)c2)CC(c2ccc3ccccc3c2)CCC1.Cl (stereo not shown)	7.56

// below: ED50 requested for another compound
ED50 of CN(CCc1ccccc1)CC1=C(c2cccc(O)c2)CC(c2ccccc2)CCC1.Cl (stereo not shown) , assay on phenylquinone-induced writhing in mice, is 3.4
